What switch fluorescence ratio was measured for each of the following?
tested on: ATP; test: switch fluorescence ratio, 500 uM ATP over buffer (Cy3 cluster intensity, sum of 5 cycles each) (fold (ratio)); higher = stronger signal-on switching upon ATP binding; sequences stand for … in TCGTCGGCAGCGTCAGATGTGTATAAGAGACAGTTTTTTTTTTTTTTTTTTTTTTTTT…TC; details: aptamer strand: ATP DNA aptamer (quencher-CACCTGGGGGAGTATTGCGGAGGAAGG + anchor), 100 nM annealed; ATP concentration: 500 uM;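 further: ATP exposure 15 min at 22 °C before imaging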
Write the value as a bare number.

Q. Field: switch fluorescence ratio (ATP). Entry: GTTTATACCG
A. 0.996

Q. Now the sequence TCCTGATTGT
A. 0.988

Q. Another sequence to look at: AAAAGAGGGA
A. 0.999

Q. Likewise for TGCATAAATT ?
A. 0.987

Q. // next record TTGGGTATTT
A. 0.986

Q. Now consider ATTATTAGGA and answer again.
A. 1.04

Q. Entry to check: TTTTATAGTT
A. 1

Q. // next record TCTAGTCCGA
A. 1

Q. Another sequence to look at: CTTGGCAAGG
A. 1.03

Q. Also CACTGCCTGC ?
A. 1.08

Q. Field entry: CGGTCACGCG
A. 0.972

Q. Likewise for ATTAAATACC ?
A. 1.25

Q. Check TATTACAGGT too.
A. 1.03

Q. Now try TATTGTGAAA .
A. 0.988

Q. Next entry: GTGTAACCTG
A. 1.01

Q. Item: GGTATTCGAA
A. 1.05

Q. Now give it for GAAGGTCGGC too.
A. 0.994

Q. Do the same for TAAGTACGGC please
A. 1.31

Q. Further, for ACAGGATACA ?
A. 1.14

Q. // next record TTTGTTGGGA
A. 1.02

Every entry's value here was drawn from the supplement of paper PMC10126150.
